# assay-method-text: physchem
# Type: physicochemical
# condition-context: water
Provide the recorded solubility for the entries that follow.
The reply must contain the numeric value and, after it, the unit.

In [3]: df
Out[3]:
                            molecule  experimental_readout        val
0  NC(=O)CC[C@H](N)C(=O)O [Glutamin]            solubility  325 mg/mL

Please examine the following record next.
Quick check: solubility of C[C@H](N)C(=O)O [Alanin] ?
158 mg/mL
